Measured values drawn from patent US20210253701A1 for this set.

Biological target: T1, soluble heterodimeric hCD3ε/δ.mFc protein (human)
T1 construct: also called soluble human CD3; human CD3 heterodimeric protein
T1 sequence (P07766 23-126, stated change not applied, chain 1 of 2): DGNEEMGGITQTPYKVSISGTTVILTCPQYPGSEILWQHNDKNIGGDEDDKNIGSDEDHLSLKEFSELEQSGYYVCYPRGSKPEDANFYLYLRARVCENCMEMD
T1 sequence (P04234 22-105, stated change not applied, chain 2 of 2, further chain): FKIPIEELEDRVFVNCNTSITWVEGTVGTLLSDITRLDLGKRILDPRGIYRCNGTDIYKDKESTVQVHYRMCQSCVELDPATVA
Assay: SPR 37 C, antigen-capture format
Reported endpoint: T½ (min)
I only need the number, in min, no unit after it.

Task item: What value of measured T½ is listed for BSPSMA/CD3-1500 (bispecific antibody) chain 1: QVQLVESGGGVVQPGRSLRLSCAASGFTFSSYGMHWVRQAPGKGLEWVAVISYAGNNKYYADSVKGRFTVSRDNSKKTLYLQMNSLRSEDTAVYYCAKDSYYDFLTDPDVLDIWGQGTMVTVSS chain 2: EVQLVESGGGLVQPGRSLRLSCAASGFTFDDYSMHWVRQAPGKGLEWVSGISWNSGSKGYADSVKGRFTISRDNAKNSLYLQMNSLRAEDTALYYCAKDGSGYGKFYYYGLDVWGQGTTVTVSS chain 3: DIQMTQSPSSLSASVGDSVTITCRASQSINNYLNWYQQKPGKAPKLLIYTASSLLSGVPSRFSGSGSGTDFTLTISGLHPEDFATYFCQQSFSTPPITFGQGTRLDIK ?
Reply: 1.9

Task item: Query (binder): BSPSMA/CD3-1300 (bispecific antibody) chain 1: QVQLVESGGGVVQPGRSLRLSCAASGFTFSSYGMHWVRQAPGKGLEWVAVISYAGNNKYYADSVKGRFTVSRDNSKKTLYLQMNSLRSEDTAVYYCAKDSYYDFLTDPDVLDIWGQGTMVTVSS chain 2: EVQLVESGGGLVQPGRSLRLSCAASGFTFDDYSMHWVRQAPGKGLEWVSGISWNSGSIGYADSVKGRFTISRDNAKNSLYLQMNSLRAEDTALYYCAKYGSGYGKFYYYGLDVWGQGTTVTVSS chain 3: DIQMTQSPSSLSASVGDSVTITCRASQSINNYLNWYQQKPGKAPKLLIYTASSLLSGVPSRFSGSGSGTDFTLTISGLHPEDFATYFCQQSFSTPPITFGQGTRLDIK ; field requested: T½
Reply: 4.7
